Ref: patent US7816371B2

Biological target: P2X7 receptor (Homo sapiens, UniProt Q99572)
Sequence (Q99572 whole entry): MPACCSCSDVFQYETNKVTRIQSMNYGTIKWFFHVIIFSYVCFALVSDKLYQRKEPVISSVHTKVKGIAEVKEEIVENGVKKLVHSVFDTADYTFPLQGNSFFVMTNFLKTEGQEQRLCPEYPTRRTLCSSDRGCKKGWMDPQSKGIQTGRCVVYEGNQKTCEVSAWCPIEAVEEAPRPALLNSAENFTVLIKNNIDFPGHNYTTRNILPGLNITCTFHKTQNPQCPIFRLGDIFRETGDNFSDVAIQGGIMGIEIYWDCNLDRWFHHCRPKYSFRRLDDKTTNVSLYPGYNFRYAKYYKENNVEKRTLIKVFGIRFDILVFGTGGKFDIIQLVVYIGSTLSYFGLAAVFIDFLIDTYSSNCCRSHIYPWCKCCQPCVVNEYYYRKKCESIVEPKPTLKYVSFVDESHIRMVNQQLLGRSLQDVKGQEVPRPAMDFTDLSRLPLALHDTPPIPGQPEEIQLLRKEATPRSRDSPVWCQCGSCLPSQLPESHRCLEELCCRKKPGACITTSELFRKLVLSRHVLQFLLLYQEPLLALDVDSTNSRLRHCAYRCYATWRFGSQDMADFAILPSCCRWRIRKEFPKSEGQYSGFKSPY
Test: IL-1β release assay in differentiated THP-1 cells stimulated with BzATP (Example 9); % inhibition and IC50
Conditions: THP-1 cells differentiated with LPS and IFN-γ, 30 min pretreatment, BzATP 250 uM, IL-1β by ELISA
assay_metric: pIC50
Note: pIC50 values are expressed as the negative base-10 logarithm of concentration in M.

Recorded results for 5 compounds are shown here.
structure: C[C@H](C(=O)Nc1cccc2c(=O)n([C@@H](C)C(N)=O)ccc12)c1ccc(Cl)cc1
pIC50: 7.82
//
structure: O=C(Cc1ccc(Cl)c(Cl)c1)Nc1cccc2c(=O)n(C(CO)CO)ccc12
pIC50: 7.56
//
structure: C[C@H](CO)n1ccc2c(NC(=O)Cc3ccc(F)c(Cl)c3)cccc2c1=O
pIC50: 6.69
//
structure: C[C@@H](C(N)=O)n1ccc2c(NC(=O)Cc3cccc(C(F)(F)F)c3F)cccc2c1=O
pIC50: 7.31
//
structure: O=C(Cc1ccc(C(F)(F)F)c(F)c1)Nc1cccc2c(=O)n(CCO)ccc12
pIC50: 7.83

For the compound C[C@H](CO)n1ccc2c(NC(=O)Cc3ccc(Cl)cc3F)cccc2c1=O , what pIC50 is on record?
7.40

# pIC50 lookup, item C[C@H](C(N)=O)n1ccc2c(NC(=O)Cc3cccc(C(F)(F)F)c3F)cccc2c1=O
8.18

Field request: pIC50 | item: CC(C)(CO)n1ccc2c(NC(=O)Cc3ccc(C(F)(F)F)c(F)c3)cccc2c1=O
7.39

###

Entries annotated with measured log10 IC50
Target: P2X7 receptor (Homo sapiens)
Assay: IL-1β release assay in differentiated THP-1 cells stimulated with BzATP (Example 9); % inhibition and IC50
Conditions: THP-1 cells differentiated with LPS and IFN-γ, 30 min pretreatment, BzATP 250 uM, IL-1β by ELISA
Scale: log10; quantity: IC50; unit before log: nM

// solved cases for log10 IC50 follow
compound: CNC(=O)[C@@H](CO)n1ccc2c(NC(=O)C(C)c3ccc(Cl)cc3)cccc2c1=O (stereo partly drawn)
assay_target: P2X7 receptor (Homo sapiens)
log10 IC50: 2.27
//
compound: C[C@H](C(N)=O)n1ccc2c(NC(=O)Cc3ccc(C(F)(F)F)c(F)c3)cccc2c1=O
assay_target: P2X7 receptor (Homo sapiens)
log10 IC50: 0.71
//
compound: CC(C(=O)Nc1cccc2c(=O)n([C@H](CO)C(N)=O)ccc12)c1ccc(Cl)cc1 (stereo partly drawn)
assay_target: P2X7 receptor (Homo sapiens)
log10 IC50: 2.21
//
compound: C[C@H](C(N)=O)n1ccc2c(NC(=O)Cc3ccccc3F)cccc2c1=O
assay_target: P2X7 receptor (Homo sapiens)
log10 IC50: 2.82
//
compound: C[C@H](C(=O)Nc1cccc2c(=O)n([C@@H](C)CO)ccc12)c1ccc(Cl)c(Cl)c1
assay_target: P2X7 receptor (Homo sapiens)
log10 IC50: 2.09
//
compound: C[C@H](C(=O)Nc1cccc2c(=O)n([C@@H](C(N)=O)c3ccccc3)ccc12)c1ccc(Cl)c(Cl)c1
assay_target: P2X7 receptor (Homo sapiens)
log10 IC50: 1.76

Request the reported log10 IC50 associated with CC(C)(CO)n1ccc2c(NC(=O)Cc3ccc(Cl)cc3F)cccc2c1=O
2.24

Which log10 IC50 is listed for C[C@H](C(N)=O)n1ccc2c(NC(=O)Cc3c(F)cccc3C(F)(F)F)cccc2c1=O ?
2.57

Which measured log10 IC50 value corresponds to C[C@H](C(N)=O)n1ccc2c(NC(=O)Cc3ccc(F)cc3F)cccc2c1=O ?
1.65

Requested read-out: log10 IC50. Entry: C[C@H](C(N)=O)n1ccc2c(NC(=O)Cc3ccc(-c4ccccc4)cc3)cccc2c1=O
1.72

// lookup log10 IC50 for C[C@H](CO)n1ccc2c(NC(=O)Cc3ccc(Cl)c(C(F)(F)F)c3)cccc2c1=O
0.06

Give its log10 IC50 value. Item: NCC(CCl)Cn1ccc2c(NC(=O)Cc3ccc(Cl)c(Cl)c3)cccc2c1=O (stereo not drawn)
2.32

# get_value(readout='log10 IC50', item= NC(=O)[C@H](CO)n1ccc2c(NC(=O)Cc3ccc(Cl)c(Cl)c3)cccc2c1=O )
2.88

Item NCC(CCl)Cn1ccc2c(NC(=O)Cc3ccc(Cl)c(C(F)(F)F)c3)cccc2c1=O (stereo not drawn) has what recorded log10 IC50?
1.00

Looking for the measured log10 IC50 of C[C@H](C(N)=O)n1ccc2c(NC(=O)Cc3cccc(OC(F)(F)F)c3)cccc2c1=O , can you help?
2.85

###

Molecular target: P2X7 receptor (Homo sapiens)
Experiment: IL-1β release assay in differentiated THP-1 cells stimulated with BzATP (Example 9); % inhibition and IC50
Settings: THP-1 cells differentiated with LPS and IFN-γ, 30 min pretreatment, BzATP 250 uM, IL-1β by ELISA
assay_metric: pIC50
Keep it numeric: pIC50 is minus log10 of the concentration in mol/L.

Below, 6 compounds whose answers are already recorded.
structure: NC(=O)[C@H](CO)n1ccc2c(NC(=O)Cc3ccc(Cl)c(C(F)(F)F)c3)cccc2c1=O
assay_metric: pIC50
recorded_value: 7.82
--
structure: C[C@H](C(N)=O)n1ccc2c(NC(=O)Cc3cc(F)c(F)c(F)c3)cccc2c1=O
assay_metric: pIC50
recorded_value: 7.49
--
structure: C[C@H](C(N)=O)n1ccc2c(NC(=O)[C@H](C)c3ccc(Cl)cc3)cccc2c1=O
assay_metric: pIC50
recorded_value: 7.14
--
structure: O=C(Cc1ccc(Cl)c(Cl)c1)Nc1cccc2c(=O)n(C[C@H]3CCCN3)ccc12
assay_metric: pIC50
recorded_value: 7.33
--
structure: C[C@@H](C(N)=O)n1ccc2c(NC(=O)Cc3ccc(F)c(Cl)c3)cccc2c1=O
assay_metric: pIC50
recorded_value: 7.17
--
structure: O=C(Cc1ccc(Cl)c(C(F)(F)F)c1)Nc1cccc2c(=O)n(C(CO)CO)ccc12
assay_metric: pIC50
recorded_value: 7.56

// returns reported pIC50 for input C[C@H](C(=O)Nc1cccc2c(=O)n([C@H](C)CO)ccc12)c1ccc(Cl)c(Cl)c1
7.87

pIC50 lookup needed for CC(C)(CO)n1ccc2c(NC(=O)Cc3ccc(C(F)(F)F)cc3C(F)(F)F)cccc2c1=O , thanks.
6.10

What does the record list as pIC50 for O=C(Cc1ccc(F)cc1)Nc1cccc2c(=O)n(CCO)ccc12 ?
6.27

###

Target: P2X7 receptor (Homo sapiens)
Assay: IL-1β release assay in differentiated THP-1 cells stimulated with BzATP (Example 9); % inhibition and IC50
Conditions: THP-1 cells differentiated with LPS and IFN-γ, 30 min pretreatment, BzATP 250 uM, IL-1β by ELISA
pIC50: −log10 of the molar value.
Respond with T for pIC50 values of 7 and above, F for values below.

compound: O=C(CCc1ccccc1)Nc1cccc2c(=O)n(CCO)ccc12 [Compound 3]
class_assignment: F

compound: C[C@H](C(N)=O)n1ccc2c(NC(=O)Cc3ccc(C(F)(F)F)cc3F)cccc2c1=O [Compound 296]
class_assignment: T

compound: C[C@H](C(N)=O)n1ccc2c(NC(=O)Cc3ccc(F)c(F)c3F)cccc2c1=O [Compound 379]
class_assignment: T

# bool: pIC50 of C[C@H](C(N)=O)n1ccc2c(NC(=O)Cc3ccc(F)cc3Cl)cccc2c1=O [Compound 291] >= 7
T

Threshold query (pIC50 >= 7) on CNC(=O)[C@@H](CO)n1ccc2c(NC(=O)C(C)c3ccc(Cl)c(Cl)c3)cccc2c1=O (stereo partly shown) [Compound 270]
T

###

Biological target: P2X7 receptor (Homo sapiens)
Test: IL-1β release assay in differentiated THP-1 cells stimulated with BzATP (Example 9); % inhibition and IC50
Conditions: THP-1 cells differentiated with LPS and IFN-γ, 30 min pretreatment, BzATP 250 uM, IL-1β by ELISA
We begin with a simple list: items and their reported IC50.

Please review the entries below; each comes with its answer.
molecule: O=C(CCc1cc(C(F)(F)F)cc(C(F)(F)F)c1)Nc1cccc2c(=O)n(CCO)ccc12 [Compound 61]
IC50: > 1000 nM
--
molecule: C[C@H](C(N)=O)n1ccc2c(NC(=O)Cc3c(F)cccc3F)cccc2c1=O [Compound 292]
IC50: > 1000 nM
--
molecule: C[C@H](C(N)=O)n1ccc2c(NC(=O)Cc3ccccn3)cccc2c1=O [Compound 309]
IC50: > 1000 nM
--
molecule: C[C@H](CO)n1ccc2c(NC(=O)Cc3ccc(F)c(C(F)(F)F)c3)c(Cl)ccc2c1=O [Compound 377]
IC50: 0.38 nM
--
molecule: C[C@@H](C(N)=O)n1ccc2c(NC(=O)Cc3ccc(Cl)nc3)cccc2c1=O [Compound 310]
IC50: > 1000 nM

Param item = CS(=O)(=O)c1ccc(CC(=O)Nc2cccc3c(=O)n(CCO)ccc23)cc1 [Compound 72] ; retrieve measured IC50.
> 1000 nM

Return reported IC50; argument: CC(C)(CO)n1ccc2c(NC(=O)Cc3ccc(C(F)(F)F)cc3)cccc2c1=O [Compound 363]
167 nM

// returns reported IC50 for input C[C@H](C(=O)Nc1cccc2c(=O)n([C@H](C)C(=O)O)ccc12)c1ccc(Cl)cc1 [Compound 322]
572 nM
